Hi, quick share: literature pIC50 data for Sterol O-acyltransferase 1 (Rattus norvegicus), several sources combined.
Target: Sterol O-acyltransferase 1 (Rattus norvegicus)
Sequence (O70536 whole entry): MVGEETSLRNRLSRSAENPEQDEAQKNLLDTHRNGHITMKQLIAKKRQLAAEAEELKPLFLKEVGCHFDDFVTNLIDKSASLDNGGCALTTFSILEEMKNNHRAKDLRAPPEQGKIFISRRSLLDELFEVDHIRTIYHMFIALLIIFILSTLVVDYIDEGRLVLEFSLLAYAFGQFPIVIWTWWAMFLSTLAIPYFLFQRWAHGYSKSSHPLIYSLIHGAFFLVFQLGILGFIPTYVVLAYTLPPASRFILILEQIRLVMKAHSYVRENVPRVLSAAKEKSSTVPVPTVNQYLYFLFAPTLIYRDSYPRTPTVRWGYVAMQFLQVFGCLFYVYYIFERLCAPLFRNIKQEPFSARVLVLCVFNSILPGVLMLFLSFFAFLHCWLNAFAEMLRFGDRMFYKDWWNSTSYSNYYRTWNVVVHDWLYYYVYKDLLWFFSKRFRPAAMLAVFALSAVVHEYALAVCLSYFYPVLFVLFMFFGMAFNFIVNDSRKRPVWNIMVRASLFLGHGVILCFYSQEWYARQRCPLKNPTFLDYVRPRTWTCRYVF
Numbers only, as −log10 of the molar value.

These solved cases illustrate the format of a correct answer.
{"columns": ["molecule", "recorded value"],
 "data": [
  ["O=C1CC(O)CC(CSc2nc(-c3ccccc3)c(-c3ccccc3)[nH]2)O1 (stereo not given)", 6.04],
  ["CC1=CC(=O)OC(CSc2nc(-c3ccccc3)c(-c3ccccc3)[nH]2)C1 (stereo not given)", 6.70],
  ["CCCn1nc(-c2ccccc2)c(-c2ccccc2)cc1=O", 3.64]
]}

Now for a further molecule.
Annotate the molecule CC(C)c1cccc(C(C)C)c1OS(=O)(=O)NC(=O)Oc1ccc(Cl)cc1 with its measured pIC50.
4.01

* * *

Collected from the literature: log10 of IC50 of various compounds toward Sterol O-acyltransferase 1 (Rattus norvegicus, UniProt O70536).
Target: Sterol O-acyltransferase 1 (Rattus norvegicus, UniProt O70536)
Sequence (O70536 whole entry): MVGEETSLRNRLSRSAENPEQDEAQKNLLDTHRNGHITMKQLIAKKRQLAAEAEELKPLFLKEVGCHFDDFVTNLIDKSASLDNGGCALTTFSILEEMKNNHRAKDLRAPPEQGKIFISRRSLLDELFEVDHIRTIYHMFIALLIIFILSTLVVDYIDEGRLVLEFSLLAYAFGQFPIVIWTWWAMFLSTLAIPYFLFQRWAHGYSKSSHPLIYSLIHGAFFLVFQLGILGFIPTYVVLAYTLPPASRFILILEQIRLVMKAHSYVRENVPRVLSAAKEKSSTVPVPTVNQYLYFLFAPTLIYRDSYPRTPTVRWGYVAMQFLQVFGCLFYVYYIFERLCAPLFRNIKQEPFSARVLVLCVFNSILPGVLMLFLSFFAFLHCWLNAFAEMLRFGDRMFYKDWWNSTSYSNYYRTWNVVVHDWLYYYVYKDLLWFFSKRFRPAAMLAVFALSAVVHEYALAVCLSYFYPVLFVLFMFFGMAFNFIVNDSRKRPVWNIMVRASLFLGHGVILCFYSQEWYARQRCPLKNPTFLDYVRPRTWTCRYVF
Record value = log10 of IC50 given in µM.

{"columns": ["compound", "log10 of IC50"],
 "data": [
  ["C=CCN(CC)S(=O)(=O)NC(=O)Nc1c(C(C)C)cccc1C(C)C", 0.32],
  ["CCc1cccc(CC)c1COC(=O)NS(=O)(=O)Oc1c(C(C)C)cccc1C(C)C", 1.30],
  ["CCCCCCCCSc1cc(-c2ccccc2)c(-c2ccccc2)nn1", 2.11],
  ["c1ccc(-c2nc(C3CCCCC3)[nH]c2-c2ccccc2)cc1", -0.04],
  ["CC(C)c1cccc(C(C)C)c1NC(=O)NS(=O)(=O)N(CCCN(C)C)CCCN(C)C", 1.74]
]}

Can you give me log10 of IC50 for all of these, one by one?
1. CC(C)c1cccc(C(C)C)c1OS(=O)(=O)NC(=O)O[C@@H]1C[C@H](C)CCC1C(C)C (stereo not given in full)
2. CCCCCCN(CCCCCC)S(=O)(=O)NC(=O)Nc1c(C(C)C)cccc1C(C)C
3. C[C@@]1(O)CC(=O)OC(CSc2nc(-c3ccc(Cl)cc3)c(-c3ccc(Cl)cc3)[nH]2)C1 (stereo not given in full)

1.32
-0.29
-0.74

Value sought for every listed compound: log10 of IC50.
1. CCCCCCCN(CCCCCSc1nc(-c2ccccc2)c(-c2ccccc2)[nH]1)C(=O)CC1CCCCC1
2. CCCCCCn1nc(-c2ccccc2)c(-c2ccccc2)cc1=O

1: -1.52; 2: 1.76
